# System: Es-2
# test.method.notes: Primary qHTS to identify gynecologic anti-cancer compounds using libraries of approved drugs and bioactive compounds (AID 1345084); also: nearly all actives have a fitted effect of over 55% in size
# assay.context: Gynecologic cancer cell panel viability, ATPlite luminescence, 48 h; series mostly up to 57.5 µM
# Text: National Center for Advancing Translational Sciences [NCATS] Assay Overview: Chemotherapeutic drug responses vary from cancer to cancer and from patient to patient. […] ATPlite is a luminescence based assay reliant on the conversion of a luciferase substrate to light in the presence of ATP. As a cytotoxic compound will suppress growth and decrease the number of cells, the concentration of ATP will decrease, and less light signal will be detected in the well. […]
Inconclusive results are not listed. The source made the active and inactive calls. Calls follow the shape of the dose curve; as a rule, active = well fitted cell-killing curve with a large enough effect; inconclusive = small, poorly fitted or top-dose-only effect, or effect the other way; inactive = flat fitted curve, though single readings scatter.
Your answer must be one of the following: active, inactive

O=C(O)/C=C/c1ccc(O)c(O[C@@H]2O[C@H](CO)[C@@H](O)[C@H](O)[C@H]2O)c1 | inactive

Hi team, can someone confirm the assay call for Cc1ccc(NC(=O)C(=O)NC2CC(C)(C)NC(C)(C)C2)cc1 ? inactive

Could you kindly confirm the outcome this assay logged for CC(=O)C1=CCC2C3CCC4CC(O[C@@H]5O[C@H](CO)[C@@H](O[C@@H]6O[C@@H](C)[C@H](O)[C@@H](O)[C@H]6O)[C@H](O)[C@H]5O[C@@H]5O[C@H](CO)[C@@H](O)[C@H](O)[C@H]5O)CCC4(C)C3CCC12C (some centres not stated) ? inactive

Identify the outcome logged in this assay for the compound shown: CC1=C(C(=O)O[C@@H]2O[C@H](COC3OCC(O)C(O)C3O)[C@@H](O)[C@H](O)[C@H]2O)C(C)(C)CCC1 (some centres not stated) inactive
